# pest or weed control at 0.1 mg/cm2 values compiled below
- System: Aedes aegypti
- protocol_description: Arm-in-cage repellent/deterrent bioassay on exposed human forearm (modified WHO protocol), Aedes aegypti
- Type: in vivo
- condition_description: Aedes aegypti, topical, Dosage 0.1 mg/cm^2; (C-T)/C x 100 at time of failure; read-out: Percent repellence
property_label: pest or weed control at 0.1 mg/cm2 (%)

{"compound": "C=CCSSCCCSSCC=C", "property_label": "pest or weed control at 0.1 mg/cm2", "endpoint_unit": "%", "numeric_value": 85}
{"compound": "C=CCSSCC(C)SSCC=C (stereo not shown)", "property_label": "pest or weed control at 0.1 mg/cm2", "endpoint_unit": "%", "numeric_value": 87}
{"compound": "C=CCSCCCSCC=C", "property_label": "pest or weed control at 0.1 mg/cm2", "endpoint_unit": "%", "numeric_value": 89}
{"compound": "C=CCOCCCCCCCCCCOCC=C", "property_label": "pest or weed control at 0.1 mg/cm2", "endpoint_unit": "%", "numeric_value": 81}
{"compound": "C=CCSCCCCCCCCSCC=C", "property_label": "pest or weed control at 0.1 mg/cm2", "endpoint_unit": "%", "numeric_value": 93}
{"compound": "C=CCSSc1ccccc1SSCC=C", "property_label": "pest or weed control at 0.1 mg/cm2", "endpoint_unit": "%", "numeric_value": 92}
{"compound": "C=CCSSC/C=C/c1ccccc1 [Compound 16, (E)-4,5-dithia-1,7-octadien-1-yl-benzene]", "property_label": "pest or weed control at 0.1 mg/cm2", "endpoint_unit": "%", "numeric_value": 89}
